- Measured Target: VvCHIL W221L (Vitis vinifera, UniProt F6HC36, W221L)
- Sequence (F6HC36 entry or part of it W221L): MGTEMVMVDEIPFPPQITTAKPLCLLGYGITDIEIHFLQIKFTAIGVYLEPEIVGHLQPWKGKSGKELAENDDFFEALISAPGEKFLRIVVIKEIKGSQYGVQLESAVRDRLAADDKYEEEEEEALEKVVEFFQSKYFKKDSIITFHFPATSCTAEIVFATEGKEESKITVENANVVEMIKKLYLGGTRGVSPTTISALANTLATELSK
- Procedure Text: Quercetin fluorescence enhancement assay, VvCHIL W221L
- Type: binding
Readout Name: pKd
Kindly note that pKd refers to -log10 of the concentration in mol/L and answer with the value alone.

The molecule listed as O=c1c(O)c(-c2ccc(O)c(O)c2)oc2cc(O)cc(O)c12 shows pKd equal to 3.21

---

- Measured Target: VvCHIL Q141A (Vitis vinifera, UniProt F6HC36, Q141A)
- Sequence (F6HC36 entry or part of it Q141A): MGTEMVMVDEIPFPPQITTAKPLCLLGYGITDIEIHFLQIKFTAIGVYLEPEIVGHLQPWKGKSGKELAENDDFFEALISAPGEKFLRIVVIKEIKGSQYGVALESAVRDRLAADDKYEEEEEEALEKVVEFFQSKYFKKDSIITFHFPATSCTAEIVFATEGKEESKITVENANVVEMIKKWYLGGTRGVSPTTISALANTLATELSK
- Procedure Text: Quercetin fluorescence enhancement assay, VvCHIL Q141A
- Format: binding
- Conditions Used: fluorescence enhancement of quercetin
Readout Name: pKd
Bear in mind: pKd is minus log10 of a mol/L concentration; give just that figure.

Summary line: O=c1c(O)c(-c2ccc(O)c(O)c2)oc2cc(O)cc(O)c12 , VvCHIL Q141A (Vitis vinifera, UniProt F6HC36, Q141A), reported pKd = 3.39
